target: SHP1 (Homo sapiens (Human), UniProt P29350); assay: pNPP inhibition assay against SHP1; assay type: biochemical; conditions: pNPP at Km of the PTP
Sequence (P29350 244-515): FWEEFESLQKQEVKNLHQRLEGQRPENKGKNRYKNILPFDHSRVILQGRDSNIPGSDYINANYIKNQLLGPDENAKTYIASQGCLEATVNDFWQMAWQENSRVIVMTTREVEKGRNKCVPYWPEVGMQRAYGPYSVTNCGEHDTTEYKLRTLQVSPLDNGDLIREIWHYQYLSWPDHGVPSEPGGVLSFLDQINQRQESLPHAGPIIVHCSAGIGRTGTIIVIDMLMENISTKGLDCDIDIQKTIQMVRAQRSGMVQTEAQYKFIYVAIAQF
Result type: IC50

{"Smiles str": "O=C(O)C(=O)Nc1ccc(C#Cc2ccc(C(F)(F)F)cc2Cl)cc1", "IC50": "> 30 µM"}
{"Smiles str": "O=C(O)C(=O)Nc1ccc(C#Cc2ccc(OC(F)(F)F)cc2)cc1", "IC50": "> 50 µM"}
{"Smiles str": "COC(=O)c1ccc(C#Cc2ccc(NC(=O)C(=O)O)cc2)cc1", "IC50": "> 100 µM"}
{"Smiles str": "NS(=O)(=O)c1ccc(C#Cc2ccc(NC(=O)C(=O)O)cc2)cc1", "IC50": "29.9 µM"}
{"Smiles str": "N#Cc1ccc(C#Cc2ccc(NC(=O)C(=O)O)cc2)cc1", "IC50": "> 50 µM"}
{"Smiles str": "O=C(O)C(=O)Nc1ccc(C#Cc2cccc(C(F)(F)F)c2)cc1", "IC50": "> 50 µM"}

# IC50 lookup, item CC(C)(C)OC(=O)Nc1ccc(C#Cc2ccc(NC(=O)C(=O)O)cc2)cc1
> 50 µM
